system: IGROV1 ovarian; test: NCI-60 one-dose screen, 48 h (100 = growth as untreated, 0 = no growth, -100 = all killed); conditions: 10 µM unless noted
The panel holds about 83,000 compounds, 20% with a hit somewhere; the sample as a whole holds those more often.
METRIC: growth (%)
# value in %; strip the unit string

smiles_string=CNC(=O)c1cc(-c2ccc(NC(=O)Nc3ccc(N4CCN(C)CC4)c(C(F)(F)F)c3)cc2)nc2cccnc12 metric=growth unit_text=% reported_result=-83.9
smiles_string=COc1ccc(/C=N/Nc2ccnc3cc(Cl)ccc23)cc1Cl metric=growth unit_text=% reported_result=-59.5
smiles_string=O=c1/c(=C\c2ccc(-c3ccccc3)o2)sc2nc(-c3ccccc3)nn12 metric=growth unit_text=% reported_result=103
smiles_string=COc1ccc(-c2nc3ccc(-c4nnc(SCC(=O)Nc5ccc(C(=O)/C=C/c6ccccc6)cc5)o4)cc3[nH]2)cc1OC metric=growth unit_text=% reported_result=96.4

Query string: What value of growth has been recorded for this entry: Clc1ccc2c(NCCCN3CCOCC3)c3oc4ccccc4c3nc2c1
Result string: 25.8

----------
test system: NCI-H522 lung; assay: NCI-60 one-dose screen, 48 h (100 = growth as untreated, 0 = no growth, -100 = all killed); settings: 10 µM unless noted
About 83,000 compounds went through this panel and 20% of them were active in at least one assay; those are over-represented in the sample as a whole.
# growth listing for each entry below
# value in %; strip the unit string

// below: answered molecules
smiles_string=Fc1ccc(-c2cc3nc(C(Cl)Cl)nc(-c4ccc(Cl)cc4)n3n2)cc1 reported_result=30.3
smiles_string=COc1ccc(NC2=C(Cl)C(=O)C(C)=C(C)C2=O)cc1OC reported_result=84.7
smiles_string=CN(C)CCCOc1c2ccccc2nc2c1oc1ccc(Cl)cc12 reported_result=-57.1
smiles_string=Cn1c(SCC(=O)Nc2ccc(-c3nc4ccc([N+](=O)[O-])cc4[nH]3)cc2)nc2ccccc2c1=O reported_result=74.1
smiles_string=N[C@@H](Cc1cn(-c2ccnc3ccccc23)nn1)C(=O)O reported_result=101
smiles_string=O=C(N/N=C/c1ccc(Cl)s1)c1[nH]c2ccc(Br)cc2c1-c1ccccc1 reported_result=-35.1

Query string: What value of growth has been recorded for this entry: Clc1ccc2c(NCCCN3CCOCC3)c3oc4ccc(Cl)cc4c3nc2c1
Result string: 44.9

Query string: What value of growth has been recorded for this entry: Clc1ccc(-c2cn3cc(Cc4ccc(Cl)c(Cl)c4)sc3n2)cc1
Result string: 76

Query string: What value of growth has been recorded for this entry: CC1=C(C)C(=O)C(Nc2cccc(C(F)(F)F)c2)=C(Cl)C1=O
Result string: 17.7

Query string: What value of growth has been recorded for this entry: Cn1cc(-c2cc(N)n3nc(-c4cn(C)c5ccc(F)cc45)cc3n2)c2cc(F)ccc21
Result string: 28.6

----------
test system: EKVX NSCLC; test: NCI-60 one-dose screen, 48 h (100 = growth as untreated, 0 = no growth, -100 = all killed); settings: 10 µM unless noted
The panel holds about 83,000 compounds, 20% with a hit somewhere; the sample as a whole holds those more often.
# growth listing for each entry below
# value in %; strip the unit string

// below: answered compounds
smiles_string=C#C[C@]1(O)CC[C@H]2[C@@H]3CC=C4c5sc(-c6ccc(F)cn6)nc5CC[C@]4(C)[C@H]3CC[C@@]21C experimental_system="EKVX NSCLC" unit_text=% reported_result=25.4
smiles_string=CC(=O)Oc1ccccc1C(=O)Nc1cc(C(C)C)ccc1C experimental_system="EKVX NSCLC" unit_text=% reported_result=10.5
smiles_string=COc1ccc(C(=O)/C=C/c2ccc(OCc3ccc(C)cc3)c(OC)c2)cc1OC experimental_system="EKVX NSCLC" unit_text=% reported_result=61.4
smiles_string=CC(C)(C)Nc1nc2c(OCCc3ccccc3)cccn2c1-c1ccc(O)cc1 experimental_system="EKVX NSCLC" unit_text=% reported_result=38.9

Switching to the query record.
Query string: What value of growth has been recorded for this entry: N#Cc1c(-c2ccc(Cl)cc2)nc2c(-c3ccccc3)c(Nc3ccccc3)nn2c1N
Result string: 60.6
